SUBJECT OF TEST: human EP2 (Homo sapiens (Human), UniProt P43116)
Sequence (P43116 whole entry): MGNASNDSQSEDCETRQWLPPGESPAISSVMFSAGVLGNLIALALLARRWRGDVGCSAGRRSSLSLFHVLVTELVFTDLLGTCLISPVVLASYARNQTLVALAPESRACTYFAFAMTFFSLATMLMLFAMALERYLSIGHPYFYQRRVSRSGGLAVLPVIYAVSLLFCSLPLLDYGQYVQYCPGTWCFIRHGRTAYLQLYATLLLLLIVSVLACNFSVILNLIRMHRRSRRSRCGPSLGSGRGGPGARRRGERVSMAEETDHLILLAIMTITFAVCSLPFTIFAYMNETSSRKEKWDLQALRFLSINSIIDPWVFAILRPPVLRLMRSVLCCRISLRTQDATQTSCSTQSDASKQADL
Structures can show the parent of a compound that is named as a salt.
QUANTITY MEASURED: pKi
Give bare numbers, as −log10 of the molar value.

# return recorded pKi for input C[C@H](NC(=O)[C@H]1CCCCN1CCOc1ccccc1)c1ccc(C(=O)O)cc1 [Example 1, hydrochloride]
5.81

---

SUBJECT OF TEST: UniProt P34995
Sequence (P34995 whole entry): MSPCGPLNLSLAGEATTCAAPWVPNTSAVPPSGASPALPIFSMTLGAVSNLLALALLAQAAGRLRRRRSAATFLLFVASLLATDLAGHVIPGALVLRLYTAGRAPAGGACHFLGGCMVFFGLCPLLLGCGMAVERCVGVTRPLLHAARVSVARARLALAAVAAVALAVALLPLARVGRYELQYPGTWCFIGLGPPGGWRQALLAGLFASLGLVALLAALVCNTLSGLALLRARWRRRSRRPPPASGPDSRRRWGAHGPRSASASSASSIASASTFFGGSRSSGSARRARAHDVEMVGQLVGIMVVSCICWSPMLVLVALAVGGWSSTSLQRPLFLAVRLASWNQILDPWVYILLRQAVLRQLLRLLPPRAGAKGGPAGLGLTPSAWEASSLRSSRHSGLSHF
pKi: −log10 of the molar value. Counter-ions that a name gives are not always drawn.
QUANTITY MEASURED: pKi

# return recorded pKi for input C[C@H](NC(=O)[C@H]1CCCCN1CCOc1ccccc1)c1ccc(C(=O)O)cc1 [Example 1, hydrochloride]
< 4.76

---

SUBJECT OF TEST: human EP3 (isoform VI) (Homo sapiens (Human))
Sequence (P43115 other isoform, or with tags, fused parts or gaps isoform P43115-4): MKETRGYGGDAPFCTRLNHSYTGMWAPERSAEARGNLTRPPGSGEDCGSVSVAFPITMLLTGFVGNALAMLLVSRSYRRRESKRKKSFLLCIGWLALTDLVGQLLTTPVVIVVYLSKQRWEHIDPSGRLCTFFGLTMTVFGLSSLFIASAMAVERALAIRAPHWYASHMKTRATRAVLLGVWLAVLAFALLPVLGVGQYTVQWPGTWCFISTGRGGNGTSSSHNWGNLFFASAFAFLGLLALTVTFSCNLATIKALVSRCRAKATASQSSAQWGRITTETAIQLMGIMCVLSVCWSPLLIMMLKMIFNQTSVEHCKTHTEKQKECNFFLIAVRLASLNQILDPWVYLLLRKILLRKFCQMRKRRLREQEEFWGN
METHOD NOTES: In vitro binding to human EP3 ([3H]-PGE2 displacement, membranes)
EXPERIMENTAL PARAMETERS: [3H]-PGE2, HEK293 membranes; read-out: hEP3, Ki
Structures can show the parent of a compound that is named as a salt.
QUANTITY MEASURED: Ki

# return recorded Ki for input C[C@H](NC(=O)[C@H]1CCCCN1CCOc1ccccc1)c1ccc(C(=O)O)cc1 [Example 1, hydrochloride]
> 14 µM
